Where do the numbers come from? From ChEMBL document CHEMBL5260810.

target: Histone acetyltransferase KAT2A (Homo sapiens, UniProt Q92830); test: Binding affinity to human partial length GCN5L2 (E726 to K837 residues) expressed in bacterial expression system by BROMOscan assay
Sequence (Q92830 whole entry, the tested form may be a part): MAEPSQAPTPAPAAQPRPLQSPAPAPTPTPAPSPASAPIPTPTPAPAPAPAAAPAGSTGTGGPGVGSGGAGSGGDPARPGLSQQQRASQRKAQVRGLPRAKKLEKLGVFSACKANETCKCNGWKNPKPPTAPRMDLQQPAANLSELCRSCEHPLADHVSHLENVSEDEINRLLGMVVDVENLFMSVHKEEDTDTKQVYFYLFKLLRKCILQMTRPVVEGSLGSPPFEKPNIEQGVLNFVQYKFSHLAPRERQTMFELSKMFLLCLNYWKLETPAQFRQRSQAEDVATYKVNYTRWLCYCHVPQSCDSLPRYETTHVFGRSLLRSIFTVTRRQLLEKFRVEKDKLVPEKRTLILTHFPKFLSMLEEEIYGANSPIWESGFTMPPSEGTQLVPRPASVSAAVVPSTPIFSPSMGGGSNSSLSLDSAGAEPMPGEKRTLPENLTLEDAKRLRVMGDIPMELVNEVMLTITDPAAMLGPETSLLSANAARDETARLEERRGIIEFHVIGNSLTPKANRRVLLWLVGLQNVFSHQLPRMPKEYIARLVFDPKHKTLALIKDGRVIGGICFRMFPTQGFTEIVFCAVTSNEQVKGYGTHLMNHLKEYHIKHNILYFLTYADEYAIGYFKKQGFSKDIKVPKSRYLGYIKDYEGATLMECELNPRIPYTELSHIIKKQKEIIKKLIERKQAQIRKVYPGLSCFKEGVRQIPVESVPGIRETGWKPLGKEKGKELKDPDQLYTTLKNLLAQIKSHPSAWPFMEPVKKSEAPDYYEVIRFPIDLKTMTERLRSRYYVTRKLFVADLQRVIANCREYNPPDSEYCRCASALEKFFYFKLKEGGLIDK
attribute_measured: Kd (nM)
Answers are plain numbers, in nM.

What measured Kd goes with C/C=C/Cn1cc(-c2ccc(C(C)(C)O)cc2OC)c2cc[nH]c2c1=O ?
410

Continue with the next compound.
What measured Kd goes with C/C=C/Cn1cc(-c2cc(OC)c(C(C)(C)O)cc2OC)c2cc(C)[nH]c2c1=O ?
160

----------
tested on: HCC38; experiment: Cytotoxicity against human HCC38 cells measured after 8 days; type: functional, cell-based; conditions: HCC38, 192 h
attribute_measured: pIC50
One number for each entry, as −log10 of the molar value.

Recorded pIC50, per entry:
What measured pIC50 goes with C/C=C/Cn1cc(-c2ccc(C(C)(C)O)cc2OC)c2cc[nH]c2c1=O ?
4.70

What measured pIC50 goes with C/C=C/Cn1cc(-c2ccc(C(=O)N3CCOCC3)cc2)c2cc[nH]c2c1=O ?
4.70

Others:
What measured pIC50 goes with C/C=C/Cn1cc(-c2cc(OC)c(C(=O)N3CCOCC3)cc2OC)c2cc(C)[nH]c2c1=O ?
5.70

----------
For each of the compounds below, state its pIC50.
test: Cytotoxicity against human 4498-16820 Mel-BR1 X1 cells measured after 8 days; type: functional, cell-based; conditions: 4498-16820 Mel-BR1 X1, 192 h
Answers are plain numbers, as −log10 of the molar value.

What measured pIC50 goes with C/C=C/Cn1cc(-c2ccc(C(C)(C)O)cc2OC)c2cc[nH]c2c1=O ?
4.70

Continue with the next compound.
What measured pIC50 goes with C/C=C/Cn1cc(-c2ccc(C(=O)N3CCOCC3)cc2)c2cc[nH]c2c1=O ?
4.70

----------
assay: Cytotoxicity against human NCI-H2810 cells measured after 8 days; assay type: functional, cell-based; details: NCI-H2810, 192 h
attribute_measured: IC50 (µM)
Give bare numbers, in µM.

What measured IC50 goes with C/C=C/Cn1cc(-c2ccc(C(C)(C)O)cc2OC)c2cc[nH]c2c1=O ?
20

What measured IC50 goes with C/C=C/Cn1cc(-c2cc(OC)c(C(=O)N3CCOCC3)cc2OC)c2cc(C)[nH]c2c1=O ?
2

Continue with the next compound.
What measured IC50 goes with C/C=C/Cn1cc(-c2ccc(C(=O)N3CCOCC3)cc2)c2cc[nH]c2c1=O ?
20

----------
tested on: SNU-387; experiment: Cytotoxicity against human SNU-387 cells measured after 3 days; format: functional, cell-based; settings: SNU-387, 72 h
attribute_measured: IC50 (µM)
Give bare numbers, in µM.

What measured IC50 goes with C/C=C/Cn1cc(-c2cc(OC)c(C(=O)N3CCOCC3)cc2OC)c2cc(C)[nH]c2c1=O ?
5

----------
tested on: HCC1419; assay: Cytotoxicity against human HCC1419 cells measured after 8 days; assay type: functional, cell-based; settings: HCC1419, 192 h
attribute_measured: IC50 (µM)
One number for each entry, in µM.

Recorded IC50, per entry:
What measured IC50 goes with C/C=C/Cn1cc(-c2cc(OC)c(C(=O)N3CCOCC3)cc2OC)c2cc(C)[nH]c2c1=O ?
2

What measured IC50 goes with C/C=C/Cn1cc(-c2ccc(C(C)(C)O)cc2OC)c2cc[nH]c2c1=O ?
20

Continue with the next compound.
What measured IC50 goes with C/C=C/Cn1cc(-c2ccc(C(=O)N3CCOCC3)cc2)c2cc[nH]c2c1=O ?
20
